# Experiment summary: Hepatocyte stability (parent drug disappearance in cryopreserved hepatocytes)
# Format: in vitro ADME, human
# Experimental parameters: human, cryopreserved human hepatocytes, human hepatocytes, 2 μM substrate, 37° C.; Table 3
Measured attribute: half-life at 2 μM

>>> result("N#Cc1c(N)nc(N)nc1N[C@H](c1nc2c(F)ccc(Cl)c2c(=O)n1-c1cccnc1)C1CC1")
"> 10 h"
>>> result("C[C@H](Nc1nc(N)nc(N)c1C#N)c1nc2cccc(Cl)c2c(=O)n1-c1cncc(C2CC2)c1")
"7 h"
>>> result("C[C@H](Nc1nc(N)nc(N)c1C#N)c1nc2ccc(F)cc2c(=O)n1-c1cccnc1")
"> 10 h"
>>> result("CC[C@H](Nc1nc(N)nc(N)c1C#N)c1nc2cccc(Cl)c2c(=O)n1-c1cncc(F)c1")
"> 10 h"
>>> result("COc1cncc(-n2c([C@H](C)Nc3nc(N)nc(N)c3C#N)nc3cccc(Cl)c3c2=O)c1")
"8 h"
>>> result("N#Cc1c(N)nc(N)nc1N[C@H](c1nc2cccc(Cl)c2c(=O)n1-c1cncc(F)c1)C1CC1")
"> 10 h"

Continue with the compound presented below.
Q: Output half-life at 2 μM of N#Cc1c(N)nc(N)nc1N[C@H](c1nc2cccc(Cl)c2c(=O)n1-c1cccnc1)C1CC1
A: > 10 h

* * *

# Experiment summary: Hepatocyte stability (parent drug disappearance in cryopreserved hepatocytes)
# Format: in vitro ADME, human
# Experimental parameters: human, cryopreserved human hepatocytes, 2 μM substrate, 37° C.; Table 2a
# half-life at 2 μM per record follows
The figure you give is taken to be in h; do not add the unit.

>>> numeric_result("CC[C@H](Nc1nc(N)nc(N)c1C#N)c1nc2cccc(Cl)c2c(=O)n1-c1cnc(N)cc1C (atropisomer, axis not shown)")
4

Could you now consider this next compound?
Q: Note half-life at 2 μM for the compound shown: Cc1cc(N)ncc1-n1c([C@H](C)Nc2nc(N)nc(N)c2C#N)nc2cccc(Cl)c2c1=O (atropisomer, axis not shown)
A: 10

* * *

# System: basophils
# Experiment summary: Basophil activation in human whole blood (Flow2 CAST kit, CD63 flow cytometry)
# Format: cell-based
# Experimental parameters: Homo sapiens, human whole blood, basophils activated with anti-FcεRI mAb or fMLP, percent CD63 positive cells, geometric mean
Param label: returns criterion met when EC50 < 2 nM, returns criterion not met otherwise, including exact equality.

The following molecules have reported results that may help.
>>> qualitative_label("CC[C@H](Nc1nc(N)nc(N)c1C#N)c1nc2cccc(Cl)c2c(=O)n1-c1cncc(F)c1")
"criterion not met"
>>> qualitative_label("Cc1ncc(F)cc1-n1c([C@H](C)Nc2nc(N)nc(N)c2C#N)nc2cccc(Cl)c2c1=O (atropisomer, axis not shown)")
"criterion not met"
>>> qualitative_label("Cc1cncc(-n2c([C@H](C)Nc3nc(N)nc(N)c3C#N)nc3cccc(Cl)c3c2=O)c1")
"criterion met"
>>> qualitative_label("N#Cc1c(N)nc(N)nc1N[C@@H](CC1CC1)c1nc2cccc(Cl)c2c(=O)n1-c1cccnc1")
"criterion not met"
>>> qualitative_label("Cc1cccc2nc([C@H](C)Nc3nc(N)nc(N)c3C#N)n(-c3cccnc3)c(=O)c12")
"criterion met"

Turning now to a further record.
Q: Below 2 nM on EC50? Entry N#Cc1c(N)nc(N)nc1N[C@H](c1nc2ccc(F)c(Cl)c2c(=O)n1-c1cccnc1)C1CC1
A: criterion not met

Source listed as patent US9221795B2.
